Molecular target: T1, SCAF4-CID (human, UniProt O95104 1-139)
T1 sequence: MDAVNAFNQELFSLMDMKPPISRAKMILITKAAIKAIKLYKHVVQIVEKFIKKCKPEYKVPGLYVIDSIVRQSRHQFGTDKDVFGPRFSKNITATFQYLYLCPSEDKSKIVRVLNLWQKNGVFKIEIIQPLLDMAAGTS
Assay: competition FP
measuredQuantity: pIC50
For clarity, pIC50 is expressed as the negative log10 of concentration in mol/L.

Reference set, count: 5
{"binder": "TGGTGGGA (ssDNA) [D1_8nt]", "measurement": 5.90}
{"binder": "TTAAAGGGGTGGGGAGTCAT (ssDNA) [SRiApt-3]", "measurement": 6.54}
{"binder": "AGGTGGGT (ssDNA) [B2_8nt]", "measurement": 5.89}
{"binder": "GGGTGGGA (ssDNA) [F1_8nt]", "measurement": 6.26}
{"binder": "GGGGTGGGGAG (ssDNA) [SRiApt-1 (SCAF4_F3_11nt)]", "measurement": 6.08}

Consider the binder shown here: CAGGTGGGTTC (ssDNA) [SRiApt-2 (F7_11nt_B)] What is its recorded pIC50? 6.40

All values here come from paper doi:10.1101/2024.01.09.574928.
